Recorded values, source patent US9650395B2.

test system: Pseudomonas aeruginosa (P. aeruginosa) 27853; assay: Antibacterial activity, MIC, P. aeruginosa 27853; type: cell-based; settings: Pseudomonas aeruginosa, P. aeruginosa 27853; read-out: MIC 27853
READOUT: MIC

Request: Specify measured MIC for CCc1cc(C(=O)O)c(=O)[nH]c1-c1ccc(N2CCC(O)C2)cc1 (centres unmarked) [Cpd 123] .
Result: 3.5 to 12.5 µg/mL

----------
tested on: quinolone resistant E. coli LZ3111; assay: Antibacterial activity, MIC, quinolone resistant E. coli LZ3111; assay type: cell-based, Escherichia coli; conditions: Escherichia coli, read-out: MIC, LZ3111
Recorded MIC values for a group of molecules are listed next.

CCc1cc(C(=O)O)c(=O)[nH]c1-c1ccc(N2CCC(n3ccnn3)C2)cc1 (stereo not drawn) [Cpd 230]    12.5 to 150 µg/mL
CCc1cc(C(=O)O)c(=O)[nH]c1-c1ccc(N2CCC(CN)C2)cc1.O=C(O)C(F)(F)F (stereo not drawn) [Cpd 188]    12.5 to 150 µg/mL
CCc1cc(C(=O)O)c(=O)[nH]c1-c1ccc(N2CCCC2C)cc1 (stereo not drawn) [Cpd 139]    12.5 to 150 µg/mL
Cc1cc(N2C[C@@H]3[C@@H](N)[C@@H]3C2)ccc1-c1[nH]c(=O)c(C(=O)O)c(O)c1C [Cpd 318]    12.5 to 150 µg/mL
CCc1cc(C(=O)O)c(=O)[nH]c1-c1ccc(N2CCC(CNCc3ccc(Cl)cc3)C2)cc1 (stereo not drawn) [Cpd 237]    12.5 to 150 µg/mL

Request: // fetch MIC for CCc1c(-c2ccc(N3C[C@H]4CCCC[C@@]4(CN(C)C)C3)cc2)[nH]c(=O)c(C(=O)O)c1O.Cl [Cpd 266] ; system: quinolone resistant E. coli LZ3111
Result: 3.5 to 12.5 µg/mL

Request: // fetch MIC for CCc1c(-c2ccc(N3CCC(O)C3)cc2)[nH]c(=O)c(C(=O)O)c1O (stereo not drawn) [Cpd 126] ; system: quinolone resistant E. coli LZ3111
Result: 12.5 to 150 µg/mL

Request: // fetch MIC for CCc1cc(C(=O)O)c(=O)[nH]c1-c1ccc(N2C[C@H]3C[C@@H](NC)C[C@H]3C2)cc1 [Cpd 215] ; system: quinolone resistant E. coli LZ3111
Result: 12.5 to 150 µg/mL

Request: // fetch MIC for CCc1c(-c2ccc(C3=CCN(CC)CC3)cc2)[nH]c(=O)c(C(=O)O)c1O [Cpd 341] ; system: quinolone resistant E. coli LZ3111
Result: 3.5 to 12.5 µg/mL

Request: // fetch MIC for CCc1cc(C(=O)O)c(=O)[nH]c1-c1ccc(N2C[C@H]3CCC[C@@H](N(C)C)[C@H]3C2)cc1.Cl [Cpd 193] ; system: quinolone resistant E. coli LZ3111
Result: 12.5 to 150 µg/mL

Request: // fetch MIC for CCc1c(-c2ccc(NC)cc2)[nH]c(=O)c(C(=O)O)c1O [Cpd 326] ; system: quinolone resistant E. coli LZ3111
Result: 12.5 to 150 µg/mL

Request: // fetch MIC for CCc1c(-c2ccc(N3CC(N)C4(CC4)C3)cc2)[nH]c(=O)c(C(=O)O)c1O.O=C(O)C(F)(F)F (stereo not drawn) [Cpd 252] ; system: quinolone resistant E. coli LZ3111
Result: 3.5 to 12.5 µg/mL

Request: // fetch MIC for CCc1cc(C(=O)O)c(=O)[nH]c1-c1ccc(N2CCC[C@H]2C(=O)O)cc1 [Cpd 157] ; system: quinolone resistant E. coli LZ3111
Result: 12.5 to 150 µg/mL

Request: // fetch MIC for CCc1cc(C(=O)O)c(=O)[nH]c1-c1ccc(N2CC[C@@H](O)C2)cc1F [Cpd 225] ; system: quinolone resistant E. coli LZ3111
Result: 12.5 to 150 µg/mL

Request: // fetch MIC for CCc1c(-c2ccc(N3C[C@H]4CN(C)C[C@H]4C3)cc2)[nH]c(=O)c(C(=O)O)c1O.Cl [Cpd 273] ; system: quinolone resistant E. coli LZ3111
Result: 12.5 to 150 µg/mL

Request: // fetch MIC for CCc1c(-c2ccc(OC)c(OC)c2OC)[nH]c(=O)c(C(=O)O)c1O [Cpd 42] ; system: quinolone resistant E. coli LZ3111
Result: 12.5 to 150 µg/mL

Request: // fetch MIC for CCc1c(-c2ccc(N3C[C@H]4CCC[C@@H](N(C)C)[C@H]4C3)cc2)[nH]c(=O)c(C(=O)O)c1O.Cl [Cpd 261] ; system: quinolone resistant E. coli LZ3111
Result: 1 to 3.5 µg/mL

Request: // fetch MIC for CCc1cc(C(=O)O)c(=O)[nH]c1-c1ccc(OC)cc1F [Cpd 30] ; system: quinolone resistant E. coli LZ3111
Result: 12.5 to 150 µg/mL

----------
Recorded MIC values for a group of compounds are listed next.
system: control Gram-negative E. coli 25922 strain; assay: Antibacterial activity, microbroth dilution MIC, E. coli 25922; assay type: cell-based, Escherichia coli; conditions: Escherichia coli; E. coli 25922, microbroth dilution; read-out: MIC, 25922

CCc1cc(C(=O)O)c(=O)[nH]c1-c1ccc(N2C[C@H](CN)[C@@H](C)C2)cc1    12.5 to 150 µg/mL
CCc1cc(C(=O)O)c(=O)[nH]c1-c1ccc(N2CCCC2)c(OC)c1    12.5 to 150 µg/mL
CCc1cc(C(=O)O)c(=O)[nH]c1-c1ccc(I)cc1    12.5 to 150 µg/mL
CCc1cc(C(=O)O)c(=O)[nH]c1-c1ccc(C#N)cc1    12.5 to 150 µg/mL
CCc1cc(C(=O)O)c(=O)[nH]c1-c1ccc(N2CC[C@H](O)C2=O)cc1    12.5 to 150 µg/mL

Request: Specify measured MIC for "CCc1c(-c2ccccc2N2CCCCC2)[nH]c(=O)c(C(=O)O)c1O" .
Result: 12.5 to 150 µg/mL

----------
tested on: control Gram-negative E. coli 25922 strain; experiment: Antibacterial activity, microbroth dilution MIC, E. coli 25922; type: cell-based, Escherichia coli; conditions: Escherichia coli; E. coli 25922, microbroth dilution; read-out: MIC, 25922
READOUT: MIC

Worked cases, answers included:
CCc1cc(C(=O)O)c(=O)[nH]c1-c1ccc(N2CC(N)C3(CC3)C2)cc1.O=C(O)C(F)(F)F (centres unmarked) [Cpd 214]    12.5 to 150 µg/mL
CCCc1c(-c2ccc(N(C)C)cc2)[nH]c(=O)c(C(=O)O)c1O [Cpd 9]    12.5 to 150 µg/mL
CCc1cc(C(=O)O)c(=O)[nH]c1-c1ccc(N2CCC(CNCc3ccc(F)cc3)C2)cc1 (centres unmarked) [Cpd 239]    < 1 µg/mL
CCc1c(-c2ccc(N3CC=CC3)cc2)[nH]c(=O)c(C(=O)O)c1O [Cpd 302]    1 to 3.5 µg/mL

Request: // fetch MIC for CCc1cc(C(=O)O)c(=O)[nH]c1-c1ccc(N(C)C)c(OC)c1 [Cpd 64] ; system: control Gram-negative E. coli 25922 strain
Result: 12.5 to 150 µg/mL

Request: // fetch MIC for CCc1cc(C(=O)O)c(=O)[nH]c1-c1ccc(N(C)CCO)cc1 [Cpd 17] ; system: control Gram-negative E. coli 25922 strain
Result: 3.5 to 12.5 µg/mL

Request: // fetch MIC for CCc1cc(C(=O)O)c(=O)[nH]c1-c1ccc(CN2CCCC2)n1C [Cpd 350] ; system: control Gram-negative E. coli 25922 strain
Result: 12.5 to 150 µg/mL

Request: // fetch MIC for CCc1cc(C(=O)O)c(=O)[nH]c1-c1ccc(N2C[C@H]3CNC[C@H]3C2)cc1.Cl [Cpd 207] ; system: control Gram-negative E. coli 25922 strain
Result: 12.5 to 150 µg/mL

----------
test system: control Gram-negative E. coli 25922 strain; assay: Antibacterial activity, microbroth dilution MIC, E. coli 25922; type: cell-based, Escherichia coli; details: Escherichia coli; E. coli 25922, microbroth dilution; read-out: MIC, 25922
READOUT: MIC

Worked cases, answers included:
CCc1cc(C(=O)O)c(=O)[nH]c1-c1ccc(N2C[C@H]3CCC[C@H](N)[C@H]3C2)cc1.O=C(O)C(F)(F)F    12.5 to 150 µg/mL
CCc1c(-c2ccc(N3CCC(C4(N(C)C)CC4)C3)cc2)[nH]c(=O)c(C(=O)O)c1O (centres unmarked)    3.5 to 12.5 µg/mL
Cc1cc(N2C[C@@H]3[C@@H](N)[C@@H]3C2)ccc1-c1[nH]c(=O)c(C(=O)O)c(O)c1C    12.5 to 150 µg/mL
CCc1c(-c2ccc(N3CCC(CNC)C3)cc2)[nH]c(=O)c(C(=O)O)c1O.Cl (centres unmarked)    1 to 3.5 µg/mL
CCc1cc(C(=O)O)c(=O)[nH]c1-c1ccc(N2[C@H](COC)CC[C@H]2COC)cc1    12.5 to 150 µg/mL
CCc1c(-c2ccc(N3C[C@H]4CN(C)C[C@H]4C3)cc2)[nH]c(=O)c(C(=O)O)c1O.Cl    1 to 3.5 µg/mL
CCc1cc(C(=O)O)c(=O)[nH]c1-c1ccc(OC)cc1N(C)C    12.5 to 150 µg/mL
CCc1c(-c2ccc(N3CCC(OC)CC3)cc2)[nH]c(=O)c(C(=O)O)c1O    12.5 to 150 µg/mL
CCc1cc(C(=O)O)c(=O)[nH]c1-c1ccc(N2C[C@H]3CCCC[C@@]3(CN(C)C)C2)cc1.O=C(O)C(F)(F)F    12.5 to 150 µg/mL
CCc1cc(C(=O)O)c(=O)[nH]c1-c1ccc(OC(C)(C)C)cc1    12.5 to 150 µg/mL

We next turn to a different molecule, shown below.
Request: Specify measured MIC for "CCc1cc(C(=O)O)c(=O)[nH]c1-c1ccc(OC)cc1" .
Result: 3.5 to 12.5 µg/mL
